# System: E. coli 0175:H7 (NCTC 12900)
# assay method text: microbe, parasite or virus in culture
# Format: cell-based
# condition label: Escherichia coli, NCTC12900
measured quantity: MIC (µg/mL)
Number in µg/mL, nothing else.

Requested field: MIC. Item: O=C(N[C@H](CO)[C@H](O)c1ccc([N+](=O)[O-])cc1)C(Cl)Cl 8

Let us now turn to O=C(OC[C@H]1O[C@@H](OC(=O)c2cc(O)c(O)c(OC(=O)c3cc(O)c(O)c(O)c3)c2)[C@H](OC(=O)c2cc(O)c(O)c(OC(=O)c3cc(O)c(O)c(O)c3)c2)[C@@H](OC(=O)c2cc(O)c(O)c(OC(=O)c3cc(O)c(O)c(O)c3)c2)[C@@H]1OC(=O)c1cc(O)c(O)c(OC(=O)c2cc(O)c(O)c(O)c2)c1)c1cc(O)c(O)c(OC(=O)c2cc(O)c(O)c(O)c2)c1 512

----------
# System: FHs 74 Int (ATCC CCL 241) intestinal normal cells
# assay method text: MTT cytotoxicity assay, FHs 74 Int
# Assay type: cell-based
# condition label: FHs74Int, 72 h, FHs 74 Int (intestinal normal cells), MTT, read-out: IC80 ± SD (80% inhibitory concentration of proliferation)
measured quantity: IC80 (µg/mL)
Give just the number in µg/mL; leave the unit off.

Report IC80 for Oc1c(Cl)cc(Cl)c2cccnc12 please. 2

Also COc1ccc2cc3[n+](cc2c1OC)CCc1cc2c(cc1-3)OCO2 [BR, berberine chloride] ? 26.4

----------
For each record, write down the corresponding log10 MIC.
# System: Bifidobacterium adolescentis (DSMZ 20087)
# assay method text: Broth microdilution MIC, B. adolescentis
# Type: cell-based
# condition label: DSMZ20087, growth inhibited by ≥80%, read-out: MIC
Please note: log10 values; quantity MIC; unit µg/mL.

I am curious: what log10 MIC value has been reported for Oc1c(Cl)cc(Cl)c2cccnc12 [CLX, 5,7-dichloroquinolin-8-ol] ? 2.11

Another molecule: O=[N+]([O-])c1ccc(O)c2ncccc12 [NXL, 5-nitroquinolin-8-ol] 1.20

What about this molecule? CN(C)[C@@H]1C(O)=C(C(N)=O)C(=O)[C@@]2(O)C(O)=C3C(=O)c4c(O)cccc4[C@@](C)(O)[C@H]3C[C@@H]12 [TC, tetracycline] 1.81

What about O=C(N[C@H](CO)[C@H](O)c1ccc([N+](=O)[O-])cc1)C(Cl)Cl [CA, chloramphenicol] ? 0.60

And the next one, O=C(O)c1cn(C2CC2)c2cc(N3CCNCC3)c(F)cc2c1=O [CP, ciprofloxacin] ? 0.90

Here is the next molecule: Cc1ncc([N+](=O)[O-])n1CCO [MA, metronidazole] 1.81

Moving on to CO/N=C(\C(=O)N[C@@H]1C(=O)N2C(C(=O)O)=C(CSc3nc(=O)c(=O)[nH]n3C)CS[C@H]12)c1csc(N)n1 [CF, ceftriaxone sodium] 0.00

# iterate: O=S(=O)(O)c1cc(I)c(O)c2ncccc12 [FRN] 2.41

Next entry: COc1ccc2cc3[n+](cc2c1OC)CCc1cc2c(cc1-3)OCO2 [BR, berberine chloride] 2.11

----------
# Tested on: FHs 74 Int (ATCC CCL 241) intestinal normal cells
# assay method text: MTT cytotoxicity assay, FHs 74 Int
# Type: cell-based
# condition label: FHs74Int, 72 h, FHs 74 Int (intestinal normal cells), MTT, read-out: IC80 ± SD (80% inhibitory concentration of proliferation)
Exercise: state measured log10(IC80) for each of the molecules provided.
Could you please treat all values as log10 of IC80 in µg/mL?

Would you kindly share the measured log10(IC80) for O=C(O)c1ccccc1O ? 2.32

How about this molecule: O=S(=O)(O)c1cc(I)c(O)c2ncccc12 1.66

Now give it for O=[N+]([O-])c1ccc(O)c2ncccc12 too. -0.10

And the next one, CN(C)[C@@H]1C(O)=C(C(N)=O)C(=O)[C@@]2(O)C(O)=C3C(=O)c4c(O)cccc4[C@@](C)(O)[C@H]3C[C@@H]12 ? 2.03

Now try O=C(O)c1cn(C2CC2)c2cc(N3CCNCC3)c(F)cc2c1=O . 2.11

Source of measurements: paper PMC7558399
